Kindly state cell number change for each of the entries shown.
- RUN DESCRIPTION: qHTS Assay for Lipid Storage Modulators in Drosophila S3 Cells;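 also: cells counted by Cell Tracker Red CMTPX staining in the red channel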
- PARTICULARS: BODIPY lipid droplet fluorescence, 18-24 h, cells fed with added oleic acid; measured here: cell count max response
- Excerpt: NIH Molecular Libraries Probe Production Centers Network [MLPCN] NIH Chemical Genomics Center [NCGC] […] Triacsin C (Sigma-Aldrich T-4540), an inhibitor of long-chain fatty acyl CoA synthetase that blocks synthesis of triglycerides, was used as a positive control for lipid under-storage. […] Fluorescence was detected by excitation of the fluorophores with a 488-nm laser on an Acumen Explorer (TTP Lab Tech). […] Cells were detected using channel 3 (575-640 nm) with 5-um width and 100-um depth filters. […]
Screen size: about 320,000 compounds; about 2,100 (0.66%) were called active. Not shown: some 53% with an inconclusive outcome. The entries come from a sample that favours actives as a whole.
# unit: % | format: bare number

// cell number change lookup, molecule = Cc1nc2sc(C(=O)OCC(=O)N3c4ccccc4CC3C)c(C)c2c(=O)[nH]1 (stereo not drawn) , result: 19.4

cell number change reading for O=C(CCN1C(=O)c2ccccc2C1=O)Nc1ccc(F)cc1F : 5.85

# cell number change of O=C(CCCCCn1c(=O)[nH]c2ccsc2c1=O)N1CCCCC1 = -7.73

Lookup result for COc1ccc(-c2cc(CCCC(=O)NCCc3cc(OC)ccc3OC)no2)cc1 ; measured cell number change: 4.57

// cell number change lookup, molecule = Cc1cc(-c2nnc(CCC(=O)N(C)CCc3ccccc3)o2)no1 , result: 4.46

Consider Cc1cccc(N(NC(=O)C(C)(C)O)C(=O)c2ccccc2)c1 . Its measured cell number change is 7.68

The reported cell number change of the molecule Cn1cnnc1SCC(=O)Nc1ccc(F)cc1F was -0.713

Record summary for Cc1cn(C2CCC(CO)O2)c(=O)[nH]c1=O (stereo not drawn) : reported cell number change = 27

// CCCCC[C@H](O)/C=C/[C@H]1C=CC(=O)[C@@H]1C/C=C\CCCC(=O)O : cell number change value = 10.2

The molecule listed as COc1ccc(OC)c(CCNC(=O)CCCc2nnc3n(C)c(=O)c4sccc4n23)c1 has a reported cell number change of -24.6

Consider Cc1cc(/C=C2\SC(=O)N(CC(=O)Nc3ccccc3F)C2=O)c(C)n1C . Its measured cell number change is 1.47

Reported cell number change for CCCCC(O)(CCCC)C(=O)NN(C(=O)OCC)c1ccccc1 was 11.1

Entry COc1cccc(C(=O)NC(=S)Nc2cccnc2)c1 — recorded cell number change = -2.34

Please fill in: cell number change reported for COC(=O)c1ccc(-c2c(-c3ccccc3)ncc3cc(F)ccc23)cc1 = -9.19

get_value(item= Clc1ccc(OCCCc2nc(-c3cccnc3)no2)c(Cl)c1 , readout=cell number change) returns -29.5

Measured cell number change of CCC(O)(CC)C(=O)NN(C(=O)CCl)c1ccccc1 : -5.65

Form field cell number change, entry CCCCC(O)(CCCC)C(=O)NN(C(=O)OC)c1ccccc1 : 0.36

Record O=C(CCc1nnc2n(Cc3ccc(Cl)cc3)c(=O)c3ccccc3n12)N1CCN(c2ccccn2)CC1 , field cell number change: -18.3

Memo: Cn1c(=O)c2sccc2n2c(CCCC(=O)Nc3ccc(F)cc3F)nnc12 , reported cell number change: -23.8

Data point: O=C(CCc1nnc2n(Cc3ccc(F)cc3)c(=O)c3ccccc3n12)N1CCN(c2ccccn2)CC1 ; cell number change = -18.8

Sample CCc1ccc(-c2cc(C)no2)cc1S(=O)(=O)NCc1ccccc1OC ; cell number change observed: 2.29

For record Cn1c(=O)c2sccc2n2c(CCCC(=O)NCc3ccc4c(c3)OCO4)nnc12 the listed cell number change is -24.9

The reported value for CCCC(O)(CCC)C(=O)NN(C(=O)OC)c1ccccc1 in terms of cell number change is 12.3
